Reference source for all entries: the supplement of paper PMC10201428

B1: library; a variant is named by its letters at N, in order (parent)
chain: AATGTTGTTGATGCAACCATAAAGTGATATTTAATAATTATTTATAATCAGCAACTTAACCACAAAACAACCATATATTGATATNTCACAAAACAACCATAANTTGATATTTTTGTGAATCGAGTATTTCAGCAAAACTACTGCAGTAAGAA

variants of: B1; assay: relative integration efficiency (T-LR orientation) vs wild-type transposon end (log2 (normalized fold change)); transposon end mutated: left end; higher = more efficient transposition; conditions: with VchCAST RNA-guided transposition machinery (E. coli BL21(DE3) host, lacZ target)
y means recorded relative integration efficiency (log2) is 0.04 or above; n means it is below 0.04.

CG A15C    y

Ask: In plain terms: is recorded relative integration efficiency (log2) at least 0.04 for TA A22T G24T T31C A33C T76A T78A T84A C87A T104A T110A T113A ?
Reply: n
